Test system: Phospho-EGFR in H1975 cell line
protocol text: HTRF Phospo EGFR Assay (Cellular)
Format: cell-based
test conditions: Homo sapiens, NCI-H1975; H1975 cells, 6 hours compound incubation in starving medium, HTRF phospho-EGFR readout
pIC50: −log10 of the molar value.
Below is a list of entries, each paired with its recorded pIC50 value.
observation type: pIC50

compound | readout number
O=C(Nc1nccs1)C(c1cc(F)ccc1O)n1cc2cccc(-c3ccccc3)c2n1 (racemic) | 7.26
O=C(Nc1nccs1)C(c1cccc(F)c1)n1cc2ccc(C#Cc3cccnc3)cc2n1 (racemic) | 7.66
Nc1ccc2cn(C(C(=O)Nc3nccs3)c3ccccc3)nc2c1 (racemic) | 6.30

----------
Tested on: Phospho-EGFR in H1975 cell line
protocol text: HTRF Phospo EGFR Assay (Cellular)
Type: cell-based
test conditions: Homo sapiens, NCI-H1975; H1975 cells, 6 hours compound incubation in starving medium, HTRF phospho-EGFR readout
Description: HTRF Phospo EGFR Assay (Cellular) H1975 cell line was obtained from American Type Culture Collection (Manassas, Va., USA). […] Cells were cultured overnight in a 384-well white plate (8000 cells/well) using 8 μl of complete medium/well. […] The plates were then incubated for at least 4 h at room temperature before reading the fluorescence emission at 620 and 665 nm using PHERAstar FX plate reader (BMG Labtech).
pIC50: −log10 of the molar value. Where a name gives a salt, the structure may show the parent alone.

compound | system under test | pIC50
COc1ccc2cn(C(C(=O)Nc3nccs3)c3ccccc3)nc2c1 (racemic) | Phospho-EGFR in H1975 cell line | 6.27
O=C(Nc1nccs1)C(c1ccccc1)n1cc2ccc(O)cc2n1 (racemic) | Phospho-EGFR in H1975 cell line | 6.70
O=C(Nc1nccs1)C(c1ccccc1)n1cc2ccccc2n1 (racemic) | Phospho-EGFR in H1975 cell line | 7.11
O=C(Nc1ccccn1)C(c1ccccc1)n1cc2ccccc2n1 (racemic) | Phospho-EGFR in H1975 cell line | 5.75
O=C(Nc1nccs1)C(c1cc(F)ccc1O)n1cc2ccccc2n1 (racemic) | Phospho-EGFR in H1975 cell line | 7.24
O=C(Nc1nccs1)C(c1cc(F)ccc1O)n1cc2cccc(N3CCOCC3)c2n1 (racemic) | Phospho-EGFR in H1975 cell line | 7.22
O=C(Nc1nccs1)C(c1ccccc1)n1cc2ccc(-c3ccc(N4CCNCC4)nc3)cc2n1 (racemic) [Example 20, hydrochloride] | Phospho-EGFR in H1975 cell line | 7.41
O=C(Nc1nccs1)C(c1cc(F)ccc1O)n1cc2ccc(Br)cc2n1 (racemic) | Phospho-EGFR in H1975 cell line | 7.37
Nc1ccc(C#Cc2ccc3cn(C(C(=O)Nc4nccs4)c4ccccc4)nc3c2F)cn1 (racemic) | Phospho-EGFR in H1975 cell line | 7.28
O=C(Nc1nccs1)C(c1cc(F)ccc1O)n1cc2ccc(-c3ccccc3)cc2n1 (racemic) | Phospho-EGFR in H1975 cell line | 7.48
CCN1CCN(c2ccc(-c3ccc4cn(C(C(=O)Nc5nccs5)c5cccc(F)c5)nc4c3)cn2)CC1 (racemic) | Phospho-EGFR in H1975 cell line | 6.84
Nc1ccc(C#Cc2ccc3cn(C(C(=O)Nc4ccccn4)c4cc(F)ccc4O)nc3c2F)cn1 (racemic) | Phospho-EGFR in H1975 cell line | 8.15
O=C(Nc1ccccn1)C(c1ccccc1)n1cc2ccc(-c3ccc(N4CCNCC4)nc3)c(F)c2n1 (racemic) | Phospho-EGFR in H1975 cell line | 6.90
O=C(Nc1nccs1)C(c1ccccc1)n1cc2ccc(-c3ccc(N4CCNCC4)nc3)c(Cl)c2n1 (racemic) | Phospho-EGFR in H1975 cell line | 7.49
O=C(Nc1nccs1)C(c1cc(F)ccc1O)n1cc2cccc(Br)c2n1 (racemic) | Phospho-EGFR in H1975 cell line | 9.00
O=C(Nc1nccs1)C(c1ccccc1)n1cc2ccc(-c3ccc(N4CCNCC4)nc3)c(F)c2n1 (racemic) [Example 12, hydrochloride] | Phospho-EGFR in H1975 cell line | 7.51
